Somatostatin receptor type 4 (Homo sapiens, UniProt P31391) IC50 data
Sequence (P31391 whole entry): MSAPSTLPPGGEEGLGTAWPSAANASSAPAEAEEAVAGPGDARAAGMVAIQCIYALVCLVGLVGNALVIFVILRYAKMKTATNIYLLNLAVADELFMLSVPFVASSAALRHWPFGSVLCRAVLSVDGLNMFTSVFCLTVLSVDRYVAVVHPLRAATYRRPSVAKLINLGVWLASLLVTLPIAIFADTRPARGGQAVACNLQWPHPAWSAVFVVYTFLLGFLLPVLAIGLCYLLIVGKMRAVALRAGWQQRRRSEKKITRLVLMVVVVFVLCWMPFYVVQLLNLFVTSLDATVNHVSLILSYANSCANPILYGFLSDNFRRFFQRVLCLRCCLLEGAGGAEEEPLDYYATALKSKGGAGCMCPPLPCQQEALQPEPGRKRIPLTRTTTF
Measured quantity: IC50

CC(C)[C@@H]1NC(=O)[C@H](CCCCN)N(C)C(=O)[C@@H](Cc2c[nH]c3ccccc23)NC(=O)[C@H](Cc2ccc(O)cc2)NC(=O)[C@H](C)N(C)C(=O)[C@H](Cc2ccccc2)N(C)C1=O = 373 nM
CC(C)[C@@H]1NC(=O)[C@H](CCCCN)N(C)C(=O)[C@@H](Cc2c[nH]c3ccccc23)N(C)C(=O)[C@H](Cc2ccc(O)cc2)NC(=O)[C@H](C)N(C)C(=O)[C@H](Cc2ccccc2)N(C)C1=O = > 1000 nM
CC(C)[C@@H]1NC(=O)[C@H](CCCCN)N(C)C(=O)[C@@H](Cc2c[nH]c3ccccc23)NC(=O)[C@H](Cc2ccc(O)cc2)NC(=O)[C@H](C)N(C)C(=O)[C@H](Cc2ccccc2)NC1=O = > 1000 nM
CC(C)[C@@H]1NC(=O)[C@H](CCCCN)N(C)C(=O)[C@@H](Cc2c[nH]c3ccccc23)N(C)C(=O)[C@H](Cc2ccc(O)cc2)NC(=O)[C@H](C)N(C)C(=O)[C@H](Cc2ccccc2)NC1=O = > 1000 nM

* * *

Tested system: Somatostatin receptor type 2 (Homo sapiens)
Sequence (P30874 whole entry): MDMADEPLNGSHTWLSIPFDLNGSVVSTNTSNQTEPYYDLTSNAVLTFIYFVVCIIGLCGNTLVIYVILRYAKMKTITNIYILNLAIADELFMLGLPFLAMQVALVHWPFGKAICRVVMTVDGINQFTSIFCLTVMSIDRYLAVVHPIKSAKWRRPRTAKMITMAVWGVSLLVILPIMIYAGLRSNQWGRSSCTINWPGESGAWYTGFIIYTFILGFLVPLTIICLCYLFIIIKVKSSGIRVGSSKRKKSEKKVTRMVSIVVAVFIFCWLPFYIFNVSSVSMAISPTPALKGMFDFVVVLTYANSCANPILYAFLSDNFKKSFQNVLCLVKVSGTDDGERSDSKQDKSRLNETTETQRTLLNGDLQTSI
IC50 listing for selected compounds.
Measured quantity: IC50

CC(C)[C@@H]1NC(=O)[C@H](CCCCN)N(C)C(=O)[C@@H](Cc2c[nH]c3ccccc23)N(C)C(=O)[C@H](Cc2ccc(O)cc2)NC(=O)[C@H](C)N(C)C(=O)[C@H](Cc2ccccc2)N(C)C1=O = 44 nM
CC(C)[C@@H]1NC(=O)[C@H](CCCCN)N(C)C(=O)[C@@H](Cc2c[nH]c3ccccc23)NC(=O)[C@H](Cc2ccc(O)cc2)NC(=O)[C@H](C)N(C)C(=O)[C@H](Cc2ccccc2)NC1=O = 4.2 nM
CC(C)[C@@H]1NC(=O)[C@H](CCCCN)N(C)C(=O)[C@@H](Cc2c[nH]c3ccccc23)N(C)C(=O)[C@H](Cc2ccc(O)cc2)NC(=O)[C@H](C)N(C)C(=O)[C@H](Cc2ccccc2)NC1=O = 3.1 nM
CC(C)[C@@H]1NC(=O)[C@H](CCCCN)NC(=O)[C@@H](Cc2c[nH]c3ccccc23)NC(=O)[C@H](Cc2ccc(O)cc2)NC(=O)[C@H](C)N(C)C(=O)[C@H](Cc2ccccc2)N(C)C1=O = 4.4 nM

* * *

Tested system: Somatostatin receptor type 2 (Rattus norvegicus) (UniProt P30680)
Sequence (P30680 whole entry): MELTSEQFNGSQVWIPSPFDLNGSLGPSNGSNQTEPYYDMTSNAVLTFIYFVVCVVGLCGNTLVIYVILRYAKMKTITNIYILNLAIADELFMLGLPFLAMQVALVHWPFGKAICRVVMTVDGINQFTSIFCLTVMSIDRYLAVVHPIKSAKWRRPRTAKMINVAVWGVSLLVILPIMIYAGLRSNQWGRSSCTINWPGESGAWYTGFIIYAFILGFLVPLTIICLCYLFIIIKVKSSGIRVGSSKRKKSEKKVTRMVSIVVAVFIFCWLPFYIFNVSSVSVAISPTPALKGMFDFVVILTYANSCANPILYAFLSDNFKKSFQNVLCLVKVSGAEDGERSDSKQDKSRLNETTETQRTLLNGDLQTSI
Test details: Inhibition of sst2 in rat trachea assessed as effect on EFS-induced CGRP release in stimulated and poststimulated tracheal fraction at 500 nM after 8 mins by radioimmunoassay technique relative to control
Format: tissue-based
Set-up: scale not given: the % may be the effect or the level left
Measured quantity: Activity (%)

CC(C)[C@@H]1NC(=O)[C@H](CCCCN)N(C)C(=O)[C@@H](Cc2c[nH]c3ccccc23)NC(=O)[C@H](Cc2ccc(O)cc2)NC(=O)[C@H](C)N(C)C(=O)[C@H](Cc2ccccc2)NC1=O = 182
CC(C)[C@@H]1NC(=O)[C@H](CCCCN)NC(=O)[C@@H](Cc2c[nH]c3ccccc23)NC(=O)[C@H](Cc2ccc(O)cc2)NC(=O)[C@H](C)N(C)C(=O)[C@H](Cc2ccccc2)N(C)C1=O = 355
CC(C)[C@@H]1NC(=O)[C@H](CCCCN)NC(=O)[C@@H](Cc2c[nH]c3ccccc23)N(C)C(=O)[C@H](Cc2ccc(O)cc2)NC(=O)[C@H](C)N(C)C(=O)[C@H](Cc2ccccc2)N(C)C1=O = 268
CC(C)[C@@H]1NC(=O)[C@H](CCCCN)NC(=O)[C@@H](Cc2c[nH]c3ccccc23)N(C)C(=O)[C@H](Cc2ccc(O)cc2)NC(=O)[C@H](C)N(C)C(=O)[C@H](Cc2ccccc2)NC1=O = 360
CC(C)[C@@H]1NC(=O)[C@H](CCCCN)N(C)C(=O)[C@@H](Cc2c[nH]c3ccccc23)N(C)C(=O)[C@H](Cc2ccc(O)cc2)NC(=O)[C@H](C)N(C)C(=O)[C@H](Cc2ccccc2)N(C)C1=O = 100
CC(C)[C@@H]1NC(=O)[C@H](CCCCN)N(C)C(=O)[C@@H](Cc2c[nH]c3ccccc23)N(C)C(=O)[C@H](Cc2ccc(O)cc2)NC(=O)[C@H](C)N(C)C(=O)[C@H](Cc2ccccc2)NC1=O = 153
CC(C)[C@@H]1NC(=O)[C@H](CCCCN)NC(=O)[C@@H](Cc2c[nH]c3ccccc23)NC(=O)[C@H](Cc2ccc(O)cc2)NC(=O)[C@H](C)N(C)C(=O)[C@H](Cc2ccccc2)NC1=O [SEGLITIDE] = 294
CC(C)[C@@H]1NC(=O)[C@H](CCCCN)N(C)C(=O)[C@@H](Cc2c[nH]c3ccccc23)NC(=O)[C@H](Cc2ccc(O)cc2)NC(=O)[C@H](C)N(C)C(=O)[C@H](Cc2ccccc2)N(C)C1=O = 343
